This collection of values is drawn from patent US8455475B2.

Biological target: rat B1R (bradykinin receptor 1) (Rattus norvegicus)
Construct: expressed in transfected cells; host or cells: CHO K1 cells
Sequence (P97583 whole entry): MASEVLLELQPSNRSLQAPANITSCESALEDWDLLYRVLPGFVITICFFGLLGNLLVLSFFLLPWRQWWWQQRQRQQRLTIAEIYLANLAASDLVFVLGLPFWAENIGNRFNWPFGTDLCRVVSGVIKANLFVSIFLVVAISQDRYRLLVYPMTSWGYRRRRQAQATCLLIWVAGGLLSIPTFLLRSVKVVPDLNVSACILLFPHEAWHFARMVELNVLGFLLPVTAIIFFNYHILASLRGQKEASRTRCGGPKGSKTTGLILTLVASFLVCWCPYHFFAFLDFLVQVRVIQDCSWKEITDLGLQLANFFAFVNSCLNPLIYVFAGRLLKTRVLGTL
Assay: FLIPR Ca2+ assay (Fluo-4) on CHO K1 cells stably transfected with the B1R gene of the rat (rB1R cells): % inhibition at 10 μM / IC50, agonist Des-Arg9-bradykinin
Type: cell-based
Details: CHO-K1, rat B1R
Reported Endpoint: inhibition at 10 µM (%)

COc1cc(C)c(C(=O)NC2CCc3ccc(C(=O)N4CCC5(CCN(C(=O)c6cc(C(C)(C)C)nn6C)CC5)C4)cc32)c(C)c1 (centres unmarked) :: 81
O=C(NC1CCc2ccc(C(=O)N3CCC4(CCN(c5ccncc5)CC4)C3)cc21)c1ccc(C(F)(F)F)cn1 (centres unmarked) :: 81
O=C(c1ccc2c(c1)C(NS(=O)(=O)Cc1cccc(Cl)c1)CC2)N1CCC2(CC1)CCN(c1ccncc1)CC2 (centres unmarked) :: 98
O=C(NC1CCc2ccc(C(=O)N3CCC4(CCC(n5ccnc5)CC4)CC3)cc21)c1ccccc1Cl (centres unmarked) :: 102
O=C(Nc1ccc(F)cc1F)N1CCC2(CC1)CCN(C(=O)c1ccc3c(c1)C(N(C(=O)c1ccccc1Cl)C1CC1)CC3)C2 (centres unmarked) :: 59
O=C(NC1CCc2ccc(C(=O)N3CCC4(CCN(S(=O)(=O)c5ccc(F)cc5F)CC4)C3)cc21)c1ccccc1Cl (centres unmarked) :: 51
O=C(NC1CCc2ccc(C(=O)N3CCC4(CCN(Cc5ccc(F)cc5Cl)CC4)C3)cc21)c1ccccc1Cl (centres unmarked) :: 100
CN(C1CCc2ccc(C(=O)N3CCC4(CC3)CCN(c3ccncc3)CC4)cc21)S(=O)(=O)c1ccc(Br)cc1Cl (centres unmarked) :: 96
CN(C(=O)c1ccc(Cl)cc1Cl)C1CCc2ccc(C(=O)N3CCC4(CC3)CCN(c3ccncc3)CC4)cc21 (centres unmarked) :: 98
N#Cc1ccc(CN2CCC3(CC2)CCN(C(=O)c2ccc4c(c2)C(NC(=O)c2ccccc2Cl)CC4)C3)cc1 (centres unmarked) :: 85
Cn1nc(C(C)(C)C)cc1C(=O)N1CCC2(CCN(C(=O)c3ccc4c(c3)C(NC(=O)c3ccccc3Cl)CC4)CC2)CC1 (centres unmarked) :: 77
O=C(NC1CCc2ccc(C(=O)N3CCC4(CCN(Cc5cccnc5)CC4)CC3)cc21)c1cc(C(F)(F)F)ccc1Cl (centres unmarked) :: 77
Cc1cccc(Cl)c1C(=O)NC1CCc2ccc(C(=O)N3CCC4(CCN(Cc5c(C)nn(C)c5C)CC4)C3)cc21 (centres unmarked) :: 57
O=C(c1ccc2c(c1)C(NS(=O)(=O)c1ccccc1Cl)CC2)N1CCC2(CC1)CCN(c1ccncc1)C2 (centres unmarked) :: 101
